So I've got a bunch of compounds here, and I need their pIC50 values.
- target system: Human EGF receptor tyrosine kinase (Homo sapiens, UniProt P00533)
- Construct: isolated from A431 human epidermoid carcinoma cells which overexpress EGF receptor; endogenous in cells; host or cells: A431 human epidermoid carcinoma cells; purified from the lysate on wheat germ agglutinin sepharose
- Sequence (P00533 25-1210): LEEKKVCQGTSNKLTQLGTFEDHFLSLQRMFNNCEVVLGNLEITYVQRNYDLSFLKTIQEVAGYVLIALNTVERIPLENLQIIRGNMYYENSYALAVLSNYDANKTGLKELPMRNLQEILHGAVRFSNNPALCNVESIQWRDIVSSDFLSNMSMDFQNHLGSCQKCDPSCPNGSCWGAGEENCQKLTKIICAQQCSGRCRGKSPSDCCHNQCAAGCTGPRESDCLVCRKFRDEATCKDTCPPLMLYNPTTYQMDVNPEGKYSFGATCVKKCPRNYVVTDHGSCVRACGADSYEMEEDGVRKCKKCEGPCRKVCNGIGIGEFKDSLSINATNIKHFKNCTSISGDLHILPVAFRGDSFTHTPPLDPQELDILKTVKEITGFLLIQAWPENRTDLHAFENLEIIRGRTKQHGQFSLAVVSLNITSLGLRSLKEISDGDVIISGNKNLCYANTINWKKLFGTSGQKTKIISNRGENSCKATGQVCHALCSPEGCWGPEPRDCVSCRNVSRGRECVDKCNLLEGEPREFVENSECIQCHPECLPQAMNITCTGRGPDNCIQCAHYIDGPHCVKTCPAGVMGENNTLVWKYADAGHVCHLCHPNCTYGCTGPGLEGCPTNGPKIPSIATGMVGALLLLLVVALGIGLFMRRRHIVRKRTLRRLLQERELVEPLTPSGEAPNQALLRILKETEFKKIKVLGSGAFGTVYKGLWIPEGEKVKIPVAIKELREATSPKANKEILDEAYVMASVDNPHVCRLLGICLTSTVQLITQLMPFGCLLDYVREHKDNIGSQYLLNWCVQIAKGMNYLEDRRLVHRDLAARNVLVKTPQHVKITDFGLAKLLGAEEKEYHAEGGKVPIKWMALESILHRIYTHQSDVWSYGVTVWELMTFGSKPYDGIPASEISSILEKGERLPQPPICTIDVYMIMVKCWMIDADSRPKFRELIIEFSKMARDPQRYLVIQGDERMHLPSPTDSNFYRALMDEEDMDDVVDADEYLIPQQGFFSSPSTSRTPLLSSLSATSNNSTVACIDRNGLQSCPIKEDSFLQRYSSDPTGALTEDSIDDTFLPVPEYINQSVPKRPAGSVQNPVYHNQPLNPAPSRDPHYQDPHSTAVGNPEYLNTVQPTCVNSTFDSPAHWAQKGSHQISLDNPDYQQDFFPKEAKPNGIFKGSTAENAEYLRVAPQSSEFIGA
- experiment: EGF receptor tyrosine kinase inhibition (phosphorylation of PLC-gamma 1 derived peptide)
- Format: biochemical
- condition notes: enzyme value repeated in the autophosphorylation table; read-out: EGFR IC50
A value of pIC50 is the negative decimal logarithm of a concentration given in moles per litre.

// field: pIC50; key: CN(C)c1cc2c(Nc3cccc(Br)c3)ncnc2cn1 ; value = 11.22

// field: pIC50; key: c1ccc(CNc2nc[nH]c3nccc2-3)cc1 [Example 74, 4-Benzylaminopyrrolo[2,3-d]pyrimidine] ; value = 7.26

// field: pIC50; key: Nc1ccc2ncnc(Nc3cccc(Br)c3)c2n1 ; value = 8.12

// field: pIC50; key: COc1cc2c(Nc3cccc(Br)c3)ncnc2cn1 ; value = 8.59

// field: pIC50; key: CN(C)c1ccc2ncnc(Nc3cccc(Br)c3)c2n1 ; value = 8.02

// field: pIC50; key: CNc1cc2c(Nc3cccc(Br)c3)ncnc2cn1 ; value = 11.10

// field: pIC50; key: NNc1ncc2c(NCc3ccccc3)ncnc2n1 ; value = 7.96

// field: pIC50; key: CNc1ccc2ncnc(Nc3cccc(Br)c3)c2n1 ; value = 8.51

// field: pIC50; key: Nc1cc2ncnc(Nc3cccc(Br)c3)c2cn1 ; value = 8.00

// field: pIC50; key: Fc1ccc2ncnc(Nc3cccc(Br)c3)c2n1 ; value = 6.65

// field: pIC50; key: Nc1cc2ncnc(Nc3cccc([N+](=O)[O-])c3)c2cn1 ; value = 7.41
